Target: T1, human MASP-3 (construct not stated) (human)
T1 chain: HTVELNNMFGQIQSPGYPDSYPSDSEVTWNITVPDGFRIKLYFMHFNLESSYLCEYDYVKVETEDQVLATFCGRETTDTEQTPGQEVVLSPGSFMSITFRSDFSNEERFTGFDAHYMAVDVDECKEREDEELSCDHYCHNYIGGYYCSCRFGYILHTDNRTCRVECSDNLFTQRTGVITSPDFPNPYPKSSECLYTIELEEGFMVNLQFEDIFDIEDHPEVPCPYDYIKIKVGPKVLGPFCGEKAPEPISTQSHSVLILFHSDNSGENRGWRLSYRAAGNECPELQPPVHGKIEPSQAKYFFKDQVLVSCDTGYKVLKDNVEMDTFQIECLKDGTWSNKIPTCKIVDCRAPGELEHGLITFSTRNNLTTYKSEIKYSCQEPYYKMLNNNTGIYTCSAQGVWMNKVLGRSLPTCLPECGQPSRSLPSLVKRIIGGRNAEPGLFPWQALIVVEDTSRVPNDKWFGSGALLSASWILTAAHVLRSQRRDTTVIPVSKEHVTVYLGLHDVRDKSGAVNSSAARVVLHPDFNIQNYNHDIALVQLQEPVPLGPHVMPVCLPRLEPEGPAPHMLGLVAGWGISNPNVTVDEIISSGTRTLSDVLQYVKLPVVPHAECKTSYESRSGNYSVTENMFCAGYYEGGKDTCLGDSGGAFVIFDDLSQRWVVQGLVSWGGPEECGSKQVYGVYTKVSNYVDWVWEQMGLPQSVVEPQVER
Assay: cell-based or functional assay
Entries and their measured Inhibition of Rabbit Erythrocyte Lysis (IC50 nM), 10% factor D-depleted human serum follow.
Reply with just the number (in nM).

{"columns": ["binder", "value units", "measured"],
 "data": [
  ["MASP-3 mAb 2F5 (mouse-human chimeric IgG4) (antibody, V domains shown) VH: EVQLQQPGAELVKPGASVKMSCKASGYTFTSYWITWVKQRPGQGLEWIGDIYPGSGSTNYNEKFKSKATLTVDTSSSTAYMQLSSLTSEDSAVYYCARRRYYATAWFAYWGQGTLVTVSS VL: DIVMTQSQKFMSTSVGDRVSITCKASQNVGTAVAWYQQKPGQSPKLLISSASNRYTGVPDRFTGSGSGTDFTLTISNMQSEDVADYFCQQYNSYPLTFGAGTKLELKR", "nM", 0.9],
  ["MASP-3 mAb 2F2 (mouse-human chimeric IgG4) (antibody, V domains shown) VH: QVQLKQSGAELVTPGASVKMSCKASGYTFTTYPIEWMKQNHGKSLEWIGNFHPYNDDTKYNEKFKGKATLTVEKSSNTVYLELSRLTSDDSAVYFCARRVYYSYFWFGYWGHGTLVTVSS VL: DIVMTQSQKFMSTSVGDRVNVTCKASQNVGTHVAWYQQKPGQSPKALIYSASYRYSGVPDRFTGSGSGTDFTLTISNVQSEDLAEYFCQQYNSYPRALTFGAGTKLELKR", "nM", 0.8]
]}

// switching to the query binder
What does the data say about its Inhibition of Rabbit Erythrocyte Lysis (IC50 nM), 10% factor D-depleted human serum? Entry: MASP-3 mAb 1G4 (mouse-human chimeric IgG4) (antibody, V domains shown) VH: QVQLKQSGAELMKPGASVKLACKATGYTFTGYWIEWIKQRPGQGLEWIGEMLPGSGSTHYNEKFKGKATFTADTSSNTAYMQLSGLTTEDSAIYYCVRSIDYWGQGTTLTVSS VL: DVLMTQTPLSLPVSLGEQASISCRSSQSLVQSNGNTYLHWYLQKPGQSPKLLIYKVSNRFSGVPDRFSGSGSGTDFTLKISRVEAEDLGVYFCSQSTHVPPTFGGGTKLEIKR
2.7
